Please provide measured % α7 nAChR 206-216 Binding for the entries that follow.
- Target or system: 206-216 stretch of the human α7 nAChR (Homo sapiens)
- Applied conditions: […]; inhibitors 1 uM to 10 uM
Numbers only, in %.

- CCCN(CCC)C1Cc2c(O)ccc(O)c2CC1C (stereo not drawn) [Compound 15]: 85

// for each compound below, give its % α7 nAChR 206-216 Binding
1. CCCN(CCC)[C@@H]1Cc2c(O)ccc(O)c2C[C@H]1C (racemic) [Compound 9]
2. CCCN(CCC)C1Cc2c(O)ccc(O)c2CC1C (stereo not drawn) [Compound 16]
3. CCCN(CCC)C1Cc2c(O)ccc(OC)c2CC1C (stereo not drawn) [Compound 46]
4. CCCN(C)C1Cc2c(O)ccc(O)c2CC1C (stereo not drawn) [Compound 53]
5. CCCN(C)C1Cc2c(OC)ccc(OC)c2CC1C (stereo not drawn) [Compound 52]

Reply:
1. 94
2. 44
3. 18
4. 0
5. 0

====

- Target or system: Aβ aggregation (Homo sapiens)
- Construct: 100 nM of fluo-Aβ1-40 in 100 μl of each well of the 96-well Synthaloid plate; Advanced Bioconcepts (fluo-Aβ1-40)
- Test summary: Aβ aggregation assay on Synthaloid plates with labelled Aβ1-40
- Applied conditions: Synthaloid plate, 2.5 hr, room temperature; read-out: IC50, inhibition of Aβ aggregation
- Description: Aβs are known to form aggregates leading to the formation of amyloid plaques that are characteristic of Alzheimer's disease. […] We have validated this aggregation assay using both ^125I-Aβ1-40 and fluo-Aβ1-40 in a buffer containing 50 mM HEPES, pH 7.4, 0.1% BSA, 10% FCS and protease inhibitors. […] The amount of bound protein which represented Aβ aggregation was measured either by scintillation counting or fluorescence measurements.
Measurement name: IC50

Ask: Give its IC50 value. Item: CCCN(CCC)[C@@H]1Cc2c(O)ccc(O)c2C[C@H]1C (racemic) [Compound 9]
Reply: 10 nM

====

- Test system: acetylcholine release from guinea pig hippocampus synaptosomes
- Test summary: K+-evoked 3H-acetylcholine release from synaptosomes, effect of Aβs
- Format: cell-based
- Applied conditions: read-out: ACh Release (IC50)
Answer each item with its documented IC50.
One number for each entry, in µM.

Below, 3 compounds whose answers are already recorded.
* CCCN(CCC)C1Cc2c(OC)ccc(OC)c2CC1C (single isomer, unassigned) [Compound 17] | 1
* CCCN(CCC)C1Cc2c(O)ccc(O)c2CC1C (stereo not shown) [Compound 15] | 0.25
* CCCN(CCC)C1Cc2c(O)ccc(O)c2CC1C (stereo not shown) [Compound 16] | 10

Ask: Given the compound CCCN(CCC)C1Cc2c(OC)ccc(OC)c2CC1C (single isomer, unassigned) [Compound 18] , what is its reported IC50?
Reply: 10

====

Kindly state inhibition at 10 µM for each of the entries shown.
- Target or system: Aβ aggregation (Homo sapiens)
- Construct: 100 nM of fluo-Aβ1-40 in 100 μl of each well of the 96-well Synthaloid plate; purchased Amersham Pharmacia Biotech (125I-Aβ1-40); Advanced Bioconcepts (fluo-Aβ1-40)
- Test summary: Aβ aggregation assay on Synthaloid plates with labelled Aβ1-40
- Assay type: biochemical
- Applied conditions: 10 μM; read-out: % Inh Agg. (conc μM)

• CCCN(CCC)[C@@H]1Cc2c(O)ccc(O)c2C[C@H]1C (racemic) [Compound 9] = > 90%
• CCCN(CCC)C1Cc2c(OC)ccc(OC)c2CC1C (stereo not drawn) [Compound 8] = 50 to 90%
• CCCN(CCC)C1Cc2c(O)ccc(O)c2CC1C (stereo not drawn) [Compound 15] = 50 to 90%
• CCCN(C)C1Cc2c(OC)ccc(OC)c2CC1C (stereo not drawn) [Compound 52] = 60%
• CCCN(C)C1Cc2c(O)ccc(O)c2CC1C (stereo not drawn) [Compound 53] = 50 to 90%

Ask: Any idea what its inhibition at 10 µM is? The compound is CCCN(CCC)C1Cc2c(O)ccc(OC)c2CC1C (stereo not drawn) [Compound 46]
Reply: 50 to 90%

====

- Target or system: Aβ aggregation (Homo sapiens, UniProt P05067)
- Construct: 100 nM of fluo-Aβ1-40 in 100 μl of each well of the 96-well Synthaloid plate; purchased Amersham Pharmacia Biotech (125I-Aβ1-40); Advanced Bioconcepts (fluo-Aβ1-40)
- Sequence (P05067 672-711 limits assumed): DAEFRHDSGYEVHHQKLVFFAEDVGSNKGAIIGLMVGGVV
- Test summary: Aβ aggregation assay on Synthaloid plates with labelled Aβ1-40
- Format: biochemical
- Applied conditions: 10 μM
- Description: Aβs are known to form aggregates leading to the formation of amyloid plaques that are characteristic of Alzheimer's disease. […] We have validated this aggregation assay using both ^125I-Aβ1-40 and fluo-Aβ1-40 in a buffer containing 50 mM HEPES, pH 7.4, 0.1% BSA, 10% FCS and protease inhibitors. […] The amount of bound protein which represented Aβ aggregation was measured either by scintillation counting or fluorescence measurements.
For each record, write down the corresponding % Inh Agg. (conc μM).

• CCCN(Cc1ccccc1Cl)C1Cc2c(O)ccc(O)c2CC1C (racemic) = 75 (10) %
• CCCN(Cc1ccc(I)cc1)C1Cc2c(O)ccc(O)c2CC1C (racemic) = <30 (10) %

Take each entry in turn and give its % Inh Agg. (conc μM).
1. CCCN(CCCSC)C1Cc2c(O)ccc(O)c2CC1C (racemic)
2. C#CCN(CCC)C1Cc2c(O)ccc(OP(=O)(c3ccccc3)c3ccccc3)c2CC1C (stereo not drawn)
3. CCCN(CCC)C1Cc2c(O)ccc(OP(=O)(c3ccccc3)c3ccccc3)c2CC1C (stereo not drawn)
4. CCCN(Cc1ccccc1Cl)C1Cc2c(OC)ccc(OC)c2CC1C (racemic)
5. CCCN(CCC)C1Cc2c(O)ccc(O)c2CC1C (stereo not drawn)
6. CCCN(CCC)C1Cc2c(OC)ccc(OC)c2CC1C (single isomer, unassigned) [Compound 18]
7. CCCN(Cc1ccccc1)C1Cc2c(O)ccc(O)c2CC1C (racemic)

Reply:
["50-90 (10) %", "<30 (10) %", "<30 (10) %", "85 (10) %", "50-90 (10) %", "50-90 (10) %", "<30 (10) %"]
